Origin of values: patent US7186831B2

Experiment: log P by HPLC
Format: physicochemical
Settings: EEC directive 79/831 Annex V. A8 by HPLC (gradient method, acetonitrile/0.1% aqueous phosphoric acid)
MEASUREMENT LABEL: logP

{"MOLECULE": "CCCCONc1c(-c2c(F)cccc2F)c(Cl)nc2nc(C)nn12", "logP": 2.96}
{"MOLECULE": "CCOC(=O)CN(c1c(-c2c(F)cccc2F)c(Cl)nc2nc(C)nn12)C1CC1", "logP": 3}
{"MOLECULE": "Cc1nc2nc(Cl)c(-c3c(F)cccc3Cl)c(N3CCC(F)CC3)n2n1", "logP": 3.07}

---

Assay: log P by HPLC
Assay type: physicochemical
Settings: HPLC, gradient method, acetonitrile/0.1% aqueous phosphoric acid; EEC directive 79/831 Annex V. A8
MEASUREMENT LABEL: logP

Examples with their reported logP follow.
{"MOLECULE": "Fc1cccc(F)c1-c1c(Cl)nc2nc(C3CC3)nn2c1N1CCCCC1", "logP": 3.9}
{"MOLECULE": "Cc1nc2nc(Cl)c(-c3c(F)cc(F)cc3F)c(NCC(C)C)n2n1", "logP": 3.14}
{"MOLECULE": "COC(=O)C(C)Nc1c(-c2c(F)cc(F)cc2F)c(Cl)nc2nc(C)nn12 (centres unmarked)", "logP": 2.45}
{"MOLECULE": "CC(C)CN(N)c1c(-c2c(F)cc(F)cc2F)c(Cl)nc2nc(C3CC3)nn12", "logP": 3.65}
{"MOLECULE": "CC(C)C(C)Nc1c(-c2ccc(Cl)cc2Cl)c(Cl)nc2nc(C3CC3)nn12 (single isomer, unassigned) [compound 759]", "logP": 4.72}

A = C=C(C)CN(CC)c1c(-c2c(F)cc(F)cc2F)c(Cl)nc2nc(C)nn12
B = Cc1nc2nc(Cl)c(-c3c(F)cccc3F)c(NOC3CCCCO3)n2n1 (centres unmarked)
Query: Between these two entries, A and B , state which has the higher logP. Kindly state the label of the option you pick.
Response: A
(A: 3.83, B: 2.54)
